I'd be grateful if you could share measured IC50 for these entries.
# Tested on: SNU-C1
# assay summary: cells
# Format: cell-based
# particulars: Homo sapiens, SNU-C1, basal; SNU-C1; read-out: Basal_Viability ATP SNU-C1
One number for each entry, in µM.

Sample answers from the record:
CCc1oc2ccccc2c1C(=O)c1cc(Br)c(O)c(Br)c1 [Benzbromarone]	0.105
COP(=S)(OC)Oc1ccc(Sc2ccc(OP(=S)(OC)OC)cc2)cc1 [temephos]	3.03

Tell me reported IC50 for CC[C@@]1(O)C(=O)OCc2c1cc1n(c2=O)Cc2cc3c(CN(C)C)c(O)ccc3nc2-1 [topotecan] , tested with SNU-C1.
0.301

---

For each entry below, report its IC50 value.
# System: SW480
# assay summary: cells
# Assay type: cell-based
# particulars: Homo sapiens, SW480, basal; SW480; read-out: Basal_Viability ATP SW480

Solved cases below.
COC(=O)Nc1nc2ccc(C(=O)C3CC3)cc2[nH]1	> 20 µM
CCCCC(CC)CNC(=N)NC(=N)NCCCCCCNC(=N)NC(=N)NCC(CC)CCCC (centres unmarked)	0.333 µM
O=C(Nc1ccc(Br)cc1)c1cc(Br)cc(Br)c1O	0.001 µM
COc1ccc2c(c1)C(=O)N(CCc1ccc(S(=O)(=O)NC(=O)NC3CCCCC3)cc1)C(=O)C2(C)C [gliquidone, reference compound]	5.5 µM
COC(=O)Nc1nc2ccc(Sc3ccccc3)cc2[nH]1	> 20 µM
CCCCOC(=O)c1ccc(N)cc1 [Butyl aminobenzoate]	0.586 µM
Cc1ccc(Nc2nccc(N(C)c3ccc4c(C)n(C)nc4c3)n2)cc1S(N)(=O)=O [pazopanib, reference compound]	5.68 µM

Then there is this molecule:
What value of IC50 has been recorded for this entry: OC[C@H]1O[C@@H](n2cnc3c(S)ncnc32)[C@H](O)[C@@H]1O
0.0287 µM

---

# Test system: Colo320
# assay summary: cells
# Format: cell-based
# particulars: assay number 27; basal
Answer each item with its documented Basal_Viability ATP Colo 320 IC50/EC50.

Example results:
CCC(COC(=O)c1cc(OC)c(OC)c(OC)c1)(c1ccccc1)N(C)C.O=C(O)/C=C\C(=O)O (stereo not shown)	> 20 µM
CC[C@H]1CN2CCc3cc(OC)c(OC)cc3[C@@H]2C[C@@H]1C[C@H]1NCCc2cc(OC)c(OC)cc21	0.0221 µM
COCC(C)N(C(=O)CCl)c1c(C)csc1C (stereo not shown)	> 20 µM

Reported Basal_Viability ATP Colo 320 IC50/EC50 for CCc1cccc2c3c([nH]c12)C(CC)(CC(=O)O)OCC3 (stereo not shown) : what is it?
> 20 µM

---

# Tested on: Colo320
# assay summary: cells
# Assay type: cell-based
# particulars: read-out: Basal_Viability ATP Colo 320
property measured: IC50

O=C([O-])CN(CCN(CC(=O)[O-])CC(=O)O)CCN(CC(=O)[O-])CC(=O)O.[Gd+3]	> 20 µM

Next up:
Any idea what IC50 was measured for CC(=O)Oc1ccc(C2(c3ccc(OC(C)=O)cc3)Oc3ccccc3NC2=O)cc1 [Bisoxatin diacetate] ?
> 20 µM

---

Can you tell me IC50 for the items I'm about to list?
# Test system: HCT116
# assay summary: cells
# Type: cell-based
# particulars: Homo sapiens, HCT-116, basal; read-out: Basal_Viability ATP HCT116
// return the numeric value with its unit appended

CC(=O)O[C@@]12CO[C@@H]1C[C@H](O)[C@@]1(C)C(=O)[C@H](O)C3=C(C)[C@@H](OC(=O)[C@H](O)[C@@H](NC(=O)OC(C)(C)C)c4ccccc4)C[C@@](O)([C@@H](OC(=O)c4ccccc4)[C@H]21)C3(C)C [docetaxel]	0.001 µM
CC[C@@]1(O)C(=O)OCc2c1cc1n(c2=O)Cc2c-1nc1ccccc1c2/C=N/OC(C)(C)C [Gimatecan]	0.0667 µM
CO[C@@H]1[C@@H](OC)[C@H](C)[C@@](O)(CC(=O)O)O[C@H]1[C@H](C)[C@H]1O[C@@]2(CC[C@@](C)([C@H]3CC[C@@](C)([C@@H]4O[C@@H]([C@H]5O[C@](C)(O)[C@H](C)C[C@@H]5C)C[C@@H]4O[C@@H]4C[C@H](OC)[C@@H](OC)[C@H](C)O4)O3)O2)C[C@H](O)[C@H]1C [Maduramicin ammonium]	8.6 µM
CCN(CC)CCCC(C)Nc1c2ccc(Cl)cc2nc2ccc(OC)cc12 (centres unmarked) [Mepacrine]	5.81 µM

From here, focus on the item given below.
Endpoint output: IC50 of NC(=O)C1(N2CCCCC2)CCN(CCCN2c3ccccc3CCc3ccc(Cl)cc32)CC1 [Clocapramine] . Value?
3.41 µM

---

What IC50 was measured for each of the following?
# Test system: HCT116
# assay summary: cells
# Format: cell-based
# particulars: Homo sapiens, HCT-116, basal; read-out: Basal_Viability ATP HCT116

Some solved cases for reference:
Cc1ccccc1C(=O)Nc1ccc(C(=O)N2CCCC(N(C)C)c3ccccc32)cc1 (stereo not drawn)	7.56 µM
NCCNc1ccc(NCCN)c2c1C(=O)c1ccncc1C2=O	> 20 µM

Attention now turns to another entry.
Entry Nc1nc(=O)n([C@@H]2O[C@H](CO)[C@@H](O)[C@@H]2F)cc1I : reported IC50 = ?
> 20 µM

---

# Tested on: ECFC/ADSC co-culture cell nuclei number
Please provide measured VEGF_ADSC\ECFC Angio Hoechst NucArea IC50/EC50 for the entries that follow.

CC(COc1ccccc1)NN (centres unmarked) [NCGC00183828-01]	> 10 µM
Cc1ccc(O)cc1 [NCGC00091519-09]	> 10 µM
CC(=O)[C@]1(O)Cc2c(O)c3c(c(O)c2[C@@H](O[C@H]2C[C@H](N)[C@H](O)[C@H](C)O2)C1)C(=O)c1ccccc1C3=O [NCGC00093976-08]	0.5381 µM

Please give VEGF_ADSC\ECFC Angio Hoechst NucArea IC50/EC50, item by item, for the list that follows.
1. COc1cccc2c1C(=O)c1c(O)c3c(c(O)c1C2=O)C[C@@](O)(C(=O)CO)CC3OC1CC(N2CCOC(OC)C2)C(O)C(C)O1 (some centres unmarked) [NCGC00319019-01]
2. CCc1oc2ccccc2c1C(=O)c1cc(Br)c(O)c(Br)c1 [NCGC00013895-08]
3. C=CCCCCCCCCC(=O)OC [NCGC00166231-02]

["0.04422 µM", "> 10 µM", "> 10 µM"]

# map each molecule to its VEGF_ADSC\ECFC Angio Hoechst NucArea IC50/EC50
1. CCc1oc2ccccc2c1C(=O)c1cc(I)c(O)c(I)c1 [NCGC00160408-03]
2. CCN(CC)CCNC(=O)c1c(C)[nH]c(/C=C2\C(=O)Nc3ccc(F)cc32)c1C [NCGC00164631-05]
3. COc1cccc2c1C(=O)c1c(O)c3c(c(O)c1C2=O)C[C@@](O)(C(=O)CO)C[C@@H]3O[C@H]1C[C@H](N)[C@H](O)[C@H](C)O1.Cl [NCGC00263918-03]
4. C/C(=C(/OCCOc1ccc(Cl)cc1)c1ccc(Cl)cc1Cl)n1ccnc1 [NCGC00249921-01]
5. O=C1CC[C@H](C(=O)N2CCCCC2)N1 [NCGC00182992-01]

1: > 10 µM; 2: > 10 µM; 3: 0.114 µM; 4: 9.416 µM; 5: > 10 µM

Could I get VEGF_ADSC\ECFC Angio Hoechst NucArea IC50/EC50 for every one of these entries?
1. CC(C(O)c1ccccc1)N(C)C/C=C/c1ccccc1 (centres unmarked) [NCGC00249896-01]
2. Cc1ccc(Nc2nccc(N(C)c3ccc4c(C)n(C)nc4c3)n2)cc1S(N)(=O)=O [NCGC00188865-03]
3. O=C(CCBr)N1CCN(C(=O)CCBr)CC1 [NCGC00095048-06]
4. CCCCCCCCCCCCCCCCCC[N+](C)(C)CCC[Si](OC)(OC)OC.[Cl-] [NCGC00166112-02]

["> 10 µM", "> 10 µM", "> 10 µM", "> 10 µM"]

For each of the items listed, what is its VEGF_ADSC\ECFC Angio Hoechst NucArea IC50/EC50?
1. Cc1[nH]cnc1C[C@H]1CCc2c(C)c3ccccc3n2C1=O [NCGC00249415-01]
2. c1ccc2c(c1)Sc1ccccc1N2CC1CN2CCC1CC2 (centres unmarked) [NCGC00183046-03]

["> 10 µM", "> 10 µM"]

---

# target or system: hKDR (Homo sapiens, UniProt P35968)
# Construct: purchased Cerep (LANCE kinase assay platform, contract assay)
# Sequence (P35968 20-1356): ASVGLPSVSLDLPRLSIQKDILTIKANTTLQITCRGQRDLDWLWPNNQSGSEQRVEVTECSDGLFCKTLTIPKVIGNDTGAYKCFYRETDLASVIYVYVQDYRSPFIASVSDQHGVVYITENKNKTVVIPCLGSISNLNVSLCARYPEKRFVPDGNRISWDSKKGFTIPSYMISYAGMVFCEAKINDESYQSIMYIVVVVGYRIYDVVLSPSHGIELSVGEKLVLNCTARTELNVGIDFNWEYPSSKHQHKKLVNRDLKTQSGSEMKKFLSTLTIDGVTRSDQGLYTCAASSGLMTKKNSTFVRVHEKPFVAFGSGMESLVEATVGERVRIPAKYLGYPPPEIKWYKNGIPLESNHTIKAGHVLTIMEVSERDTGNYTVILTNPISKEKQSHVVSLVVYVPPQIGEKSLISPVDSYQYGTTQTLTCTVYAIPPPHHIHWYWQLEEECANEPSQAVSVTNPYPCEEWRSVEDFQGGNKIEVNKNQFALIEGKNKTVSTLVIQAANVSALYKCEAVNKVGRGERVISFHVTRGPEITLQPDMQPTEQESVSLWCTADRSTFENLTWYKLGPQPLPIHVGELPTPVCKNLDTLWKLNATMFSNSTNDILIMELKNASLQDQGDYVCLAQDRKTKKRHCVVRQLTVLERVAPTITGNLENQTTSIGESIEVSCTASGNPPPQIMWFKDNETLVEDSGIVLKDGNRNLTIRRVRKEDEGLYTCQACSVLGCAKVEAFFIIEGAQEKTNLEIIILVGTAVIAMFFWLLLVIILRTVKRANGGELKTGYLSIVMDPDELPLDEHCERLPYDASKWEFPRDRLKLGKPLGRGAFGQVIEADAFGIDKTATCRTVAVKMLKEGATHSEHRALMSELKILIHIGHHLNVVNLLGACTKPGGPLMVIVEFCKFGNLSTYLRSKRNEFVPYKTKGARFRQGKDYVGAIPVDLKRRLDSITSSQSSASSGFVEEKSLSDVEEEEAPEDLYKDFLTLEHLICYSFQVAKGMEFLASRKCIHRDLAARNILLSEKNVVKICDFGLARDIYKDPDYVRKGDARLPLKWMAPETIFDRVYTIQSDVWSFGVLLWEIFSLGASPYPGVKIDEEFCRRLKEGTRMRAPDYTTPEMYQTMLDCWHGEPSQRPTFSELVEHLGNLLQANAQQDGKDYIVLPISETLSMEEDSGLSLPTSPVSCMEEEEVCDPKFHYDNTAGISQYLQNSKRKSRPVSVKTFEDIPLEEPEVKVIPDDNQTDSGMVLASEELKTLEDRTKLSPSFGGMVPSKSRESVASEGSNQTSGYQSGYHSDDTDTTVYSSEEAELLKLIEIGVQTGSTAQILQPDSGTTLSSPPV
# assay summary: Cerep LANCE kinase assay hKDR (S1 assay 32)
# Type: biochemical
# particulars: read-out: KDR
property measured: IC50

Recorded results for 2 compounds are shown here.
COc1ccc(-c2nc3ccc(C4=NNC(=O)CC4C)cc3[nH]2)cc1 (stereo not drawn)	> 20 µM
CCCCC1C(=O)N(c2ccccc2)N(c2ccc(O)cc2)C1=O (stereo not drawn)	> 20 µM

Now look at this one.
If you can, please state the reported IC50 value of CC[C@]1(O)C[C@@H]2CN(CCc3c([nH]c4ccccc34)[C@@](C(=O)OC)(c3cc4c(cc3OC)N(C)[C@H]3[C@@](O)(C(=O)OC)[C@H](OC(C)=O)[C@]5(CC)C=CCN6CC[C@]43[C@@H]65)C2)C1 .
> 20 µM
